Tested on: LPS-stimulated human peripheral blood mononuclear cells (IL1-β)
Assay type: cell-based
Details: Table 12; cells stimulated with 10 ng/ml LPS; LPS alone 1313 (HH2 derivatives), 1927 (1018 derivatives), 2455 (1002 and hybrid peptides) pg/ml
Ends that are not written are not given here.
Answer each item with its documented IL1β Production.
One number for each entry, in pg/mL.

Known IL1β Production results, listed for orientation:
[[record]]
substance = "HH2-A2: single substituted HH2 peptide (VALRIRVAVIRA-NH2)"
quantity_unit = "pg/mL"
val = 1612

[[record]]
substance = "HH2-Q8: single substituted HH2 peptide (VQLRIRVQVIRA-NH2)"
quantity_unit = "pg/mL"
val = 1279

[[record]]
substance = "1002-A3: single substituted 1002 peptide (VQAWLIVWRIRK-NH2) [Peptide 1002-A3]"
quantity_unit = "pg/mL"
val = 127


Please examine the following record next.
Query: Would you please give the reported IL1β Production of 1002-Q10: single substituted 1002 peptide (VQRWLIVWRQRK-NH2) [Peptide 1002-Q10] with LPS-stimulated human peripheral blood mononuclear cells (IL1-β)?
Result: 127
